Recorded values, source patent US20230348369A1.

- testSystem: human NAMPT (Homo sapiens, UniProt P43490)
- Sequence (P43490 whole entry): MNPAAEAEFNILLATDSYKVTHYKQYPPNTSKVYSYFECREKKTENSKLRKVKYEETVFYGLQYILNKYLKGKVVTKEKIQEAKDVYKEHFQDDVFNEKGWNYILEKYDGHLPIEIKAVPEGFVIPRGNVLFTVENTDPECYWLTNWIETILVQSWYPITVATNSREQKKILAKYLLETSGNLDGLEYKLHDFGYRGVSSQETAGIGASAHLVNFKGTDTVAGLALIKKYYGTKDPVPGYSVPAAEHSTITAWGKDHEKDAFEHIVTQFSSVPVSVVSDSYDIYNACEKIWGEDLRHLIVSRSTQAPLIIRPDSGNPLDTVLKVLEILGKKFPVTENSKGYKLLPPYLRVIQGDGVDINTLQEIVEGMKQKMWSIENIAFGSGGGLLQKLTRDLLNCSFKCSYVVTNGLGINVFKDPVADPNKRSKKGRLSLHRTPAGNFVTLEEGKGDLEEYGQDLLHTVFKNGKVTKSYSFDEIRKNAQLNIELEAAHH
- experiment: Human recombinant enzyme assay (NMN fluorescence biochemical assay, activation of NAMPT)
- experimentalParameters: Table A; human recombinant NAMPT, NMN formation, 60 min
endpointLabel: AC1.4 Human (µM)

As a guide, the following entries are already answered.
{"compound": "COc1ccc(CNC(=O)NC2CC3(C2)CN(S(=O)(=O)C2CC4CCC2C4)C3)cc1 (centres unmarked) [Compound 130]", "testSystem": "human NAMPT (Homo sapiens, UniProt P43490)", "unitSpec": "µM", "AC1.4 Human": 18.1}
{"compound": "O=C(NCCCCN1CCN(C(=O)c2ccccc2)CC1)NCc1ccc(Cl)cc1 [Compound 317]", "testSystem": "human NAMPT (Homo sapiens, UniProt P43490)", "unitSpec": "µM", "AC1.4 Human": 4.2}
{"compound": "CC(C)c1cccc(C(=O)N2CC[C@]3(C2)C[C@@H](NC(=O)NCc2ccc(Cl)cc2)C3)c1 [Compound 169]", "testSystem": "human NAMPT (Homo sapiens, UniProt P43490)", "unitSpec": "µM", "AC1.4 Human": 7.1}
{"compound": "COc1ccc(CNC(=O)NC2CC3(C2)CC(C(=O)NCC(C)(C)c2ccccn2)C3)cc1 (centres unmarked) [Compound 65]", "testSystem": "human NAMPT (Homo sapiens, UniProt P43490)", "unitSpec": "µM", "AC1.4 Human": 2.6}
{"compound": "COc1ccc(CNC(=O)NC2CC3(C2)CC(NC(=O)c2ccccc2)C3)cc1 (centres unmarked) [Compound 18]", "testSystem": "human NAMPT (Homo sapiens, UniProt P43490)", "unitSpec": "µM", "AC1.4 Human": 18.9}

I: O=C(NCCOCCOc1ccccc1)NCc1ccc(Cl)cc1 [Compound 196]
II: O=C(NCCCCC1CCN(c2ccccn2)CC1)NCc1ccc(Cl)cc1 [Compound 307]
Problem: Parameter metric = AC1.4 Human. Return the lower-valued option from I and II . Please identify the chosen entry by its label.
Result: II

====

- testSystem: endogenous NAMPT (Homo sapiens, UniProt P43490)
- Construct: stimulate the endogenous NAMPT in a native cellular environment; endogenous in cells; host or cells: SH-SY5Y neuroblastoma cells
- experiment: Cellular NAD+ modulation assay in neuroblastoma SH-SY5Y cells
- Type: cell-based
- experimentalParameters: Table B; SH-SY5Y cells, cellular NAD levels, doxorubicin, 40 hours
endpointLabel: AC0.3 (µM)

As a guide, the following entries are already answered.
{"compound": "Cc1ccccc1C(=O)N1CC[C@]2(C1)C[C@@H](NC(=O)NCc1ccc(Cl)cc1)C2", "AC0.3, µM": 0.7}
{"compound": "Cc1ccc(C(=O)N2CC[C@]3(C2)C[C@H](NC(=O)NCc2ccc(Cl)cc2)C3)cc1", "AC0.3, µM": 11.6}

P: CN(C(=O)CCCCCNC(=O)NCc1cn[nH]c1)c1ccccc1F
Q: O=C(NCc1ccc(Cl)cc1)NC1CC2(C1)CC(NS(=O)(=O)Cc1ccccc1Cl)C2 (stereo not shown)
Problem: Select the item with the higher value of AC0.3 from the options P and Q listed. Please identify the chosen entry by its label.
Result: P
(P: 0.3 µM, Q: 0.2 µM)

A: O=C(NCCOCCOc1ccccc1)NCc1ccc(Cl)cc1
B: COc1ccc(CNC(=O)NC2CC3(C2)CC(NC(=O)OC(C)(C)C)C3)cc1 (stereo not shown)
Problem: Select the item with the higher value of AC0.3 from the options A and B listed. Please identify the chosen entry by its label.
Result: B
